Experiment description: Antiproliferative activity against human Rhabdomyosarcoma cells after 96 hrs by MTS assay
Assay type: functional, cell-based
Assay context: Rhabdomyosarcoma cell
This listing pairs compounds with measured IC50.

- Smiles structure: "CC[C@H](C)Cn1c(-c2c(F)cc(OC)cc2F)c(Cl)nc(-n2cccn2)c1=O"
  IC50: "10 nM"
- Smiles structure: "CC[C@H](C)Cn1c(-c2c(F)cc(OCCCN(C)C)cc2F)c(Cl)nc(-n2cccn2)c1=O"
  IC50: "1.3 nM"
- Smiles structure: "CC[C@H](C)Cn1c(-c2c(F)cc(OCCCNC)cc2F)c(Cl)nc(-n2cccn2)c1=O.Cl"
  IC50: "0.6 nM"
- Smiles structure: "CC[C@H](C)Cn1c(-c2c(F)cc(OCCN(C)C)cc2F)c(Cl)nc(-n2cccn2)c1=O"
  IC50: "210 nM"
- Smiles structure: "CC[C@H](C)Cn1c(-c2c(F)cc(F)cc2F)c(Cl)nc(-n2cccn2)c1=O"
  IC50: "20 nM"
- Smiles structure: "CC(=O)O[C@H]1C(=O)[C@@]2(C)[C@H]([C@H](OC(=O)c3ccccc3)[C@]3(O)C[C@H](OC(=O)[C@H](O)[C@@H](NC(=O)c4ccccc4)c4ccccc4)C(C)=C1C3(C)C)[C@]1(OC(C)=O)CO[C@@H]1C[C@@H]2O"
  IC50: "8.4 nM"

Where do the numbers come from? From ChEMBL document CHEMBL3739347.
